- measured on: human FLT3 (Homo sapiens)
- Construct: a construct expressing the human FLT3 (564-993) with an amino terminal GST tag; host or cells: Sf9 insect cells (baculovirus)
- Sequence (P36888 564-993): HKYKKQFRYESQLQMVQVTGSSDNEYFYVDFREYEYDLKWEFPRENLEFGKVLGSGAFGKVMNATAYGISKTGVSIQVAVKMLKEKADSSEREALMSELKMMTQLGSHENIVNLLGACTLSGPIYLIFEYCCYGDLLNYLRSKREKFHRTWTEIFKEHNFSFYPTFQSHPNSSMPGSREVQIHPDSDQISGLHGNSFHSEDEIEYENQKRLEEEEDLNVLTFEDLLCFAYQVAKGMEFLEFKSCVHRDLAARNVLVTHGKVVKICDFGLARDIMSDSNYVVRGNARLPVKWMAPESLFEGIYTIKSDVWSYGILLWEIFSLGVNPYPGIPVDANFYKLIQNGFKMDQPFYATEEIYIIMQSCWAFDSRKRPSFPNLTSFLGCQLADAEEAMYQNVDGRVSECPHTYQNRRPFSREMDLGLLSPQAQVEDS
- experiment: FLT3 kinase assay (DELFIA enzyme inhibition)
- Format: biochemical
Field: IC50. Provide a value for each of the molecules that follow.

Consider the following illustrative entries.
[
  {
    "molecule": "NC(=O)c1nc(-c2c(F)cccc2F)oc1-c1ccc(OCCN2CCC(O)CC2)cc1",
    "measured on": "human FLT3 (Homo sapiens)",
    "IC50": "< 100 µM"
  },
  {
    "molecule": "NC(=O)c1nc(-c2c(F)cccc2F)oc1Nc1ccc(NC(=O)C2CCCNC2)cc1 (stereo not drawn)",
    "measured on": "human FLT3 (Homo sapiens)",
    "IC50": "< 10 µM"
  },
  {
    "molecule": "NC(=O)c1nc(Nc2cccnc2)oc1-c1ccc(N2CCNCC2)cc1",
    "measured on": "human FLT3 (Homo sapiens)",
    "IC50": "< 10 µM"
  },
  {
    "molecule": "NCc1ccc(-c2oc(-c3c(F)cccc3F)nc2C(N)=O)cc1",
    "measured on": "human FLT3 (Homo sapiens)",
    "IC50": "< 100 µM"
  },
  {
    "molecule": "COc1ccc(-c2oc(Nc3ccccc3C)nc2C(N)=O)cc1",
    "measured on": "human FLT3 (Homo sapiens)",
    "IC50": "< 10 µM"
  }
]

// below: IC50 requested for another molecule
(Q) Look at this molecule and give its reported IC50. "CN(CCO)CCOc1ccc(-c2oc(-c3c(F)cccc3F)nc2C(N)=O)cc1"
(A) < 10 µM

Data provenance is patent US9187465B2.
